systemName: T1, human CTGF (antigen of the Biacore assays) (human, UniProt P29279 27-349)
T1 construct: also called antigen human CTGF; human CTGF protein
T1 sequence (looked up): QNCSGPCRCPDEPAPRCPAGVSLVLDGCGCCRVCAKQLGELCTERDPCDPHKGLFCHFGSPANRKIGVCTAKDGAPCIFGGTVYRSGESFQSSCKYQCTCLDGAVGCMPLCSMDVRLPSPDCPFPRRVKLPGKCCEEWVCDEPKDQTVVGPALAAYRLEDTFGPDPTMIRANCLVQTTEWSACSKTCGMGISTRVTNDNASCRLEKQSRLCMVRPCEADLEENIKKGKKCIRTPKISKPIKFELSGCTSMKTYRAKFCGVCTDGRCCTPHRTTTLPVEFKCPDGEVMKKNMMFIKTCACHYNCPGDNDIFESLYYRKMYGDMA
assayComment: Biacore, antibody captured on Protein A, CTGF in flow, 1:1 fit
pKd: −log10 of the molar value.
property: pKd

[[record]]
binder = "Hu95-51yk (antibody, human IgG1, kappa, V domains shown) VH: EVQLVQSGAEVKKPGASVKVSCRASGFTFTNYAIHWVKQAPGQRLEWMGLVYPYTGGTAYNQKFKDKVTLTFDTSASTAYMELSSLRSEDTAVYYCARWGMIPGTNSYFDVWGQGTTVTVSS VL: EIVLTQSPATLSLSPGERATLSCRASSSVSYIHWYQQKPGQAPRPWIYATSNLASGIPARFSGSGSGTDYTLTISRLEPEDFAVYYCQQWNSNPWTFGGGTKVEIKR"
experimentalresult = 10.45

[[record]]
binder = "Hu147-13wk (antibody, human IgG1, kappa, V domains shown) VH: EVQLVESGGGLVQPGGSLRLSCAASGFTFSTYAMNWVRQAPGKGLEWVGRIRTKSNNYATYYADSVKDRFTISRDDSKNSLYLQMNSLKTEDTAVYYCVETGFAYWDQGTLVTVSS VL: EIVLTQSPATLSLSPGERATLSCSASSSVSYMHWFQQKPGQSPKLWIYSTSNLASGVPARFSGSGSGTDYTLTISSLEPEDFAVYYCQQRSSYPLTFGQGTKLEIKR"
experimentalresult = 9.09

